Source listed as PubChem BioAssay AID1963959.

A collection of compounds and their measured viability, T/C
# Test system: T-47D spheroids with HUVEC/MSC, viability
# protocol_summary: Anticancer human tumor T-47D cell line growth inhibition [PI3K];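 note: spheroids exposed to agents for seven days before reading; percent of DMSO vehicle control luminescence so 100% = untreated growth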
# test_parameters: second compound 0.0316 µM; first compound 10 µM; stronger effect = lower value
# Description: Combinatorial screen of targeted agents with the PI3K inhibitors inavolisib, alpelisib, duvelisib, and copanlisib in multi-cell type tumor spheroids A high-throughput screen of multi-cell type tumor spheroids was designed to identify active combinations of targeted small molecules and PI3K pathway inhibitors. […] Compounds. […] If the clinical Cmax for an agent had not been determined, the highest concentration tested was 10 microM. […]
Give just the numeric value; % need not be written.

Query: Provide value of viability, T/C for this record tested with T-47D spheroids with HUVEC/MSC, viability: Cn1nccc1Nc1nccc(-c2ccn(C(CO)c3ccc(Cl)c(F)c3)c(=O)c2)n1 (stereo not given) + Cc1nc(NC(=O)N2CCCC2C(N)=O)sc1-c1ccnc(C(C)(C)C(F)(F)F)c1
Result: 96.3

Query: Provide value of viability, T/C for this record tested with T-47D spheroids with HUVEC/MSC, viability: Cn1nccc1Nc1nccc(-c2ccn(C(CO)c3ccc(Cl)c(F)c3)c(=O)c2)n1 (stereo not given) + CC(Nc1ncnc2nc[nH]c12)c1cc2cccc(Cl)c2c(=O)n1-c1ccccc1
Result: 90.4

Query: Provide value of viability, T/C for this record tested with T-47D spheroids with HUVEC/MSC, viability: C=CC(=O)N1CCN(c2nc(=O)n(-c3c(C)ccnc3C(C)C)c3nc(-c4c(O)cccc4F)c(F)cc23)C(C)C1 (stereo not given) + CC(Nc1ncnc2nc[nH]c12)c1cc2cccc(Cl)c2c(=O)n1-c1ccccc1
Result: 112
